EXPERIMENT_NOTES: Volume of distribution at steady state in CD1 mouse at 12.5 mg/kg, iv and 12.5 mg/kg, po by LC-MS/Ms analysis
Type: ADME, organism-based
TEST_PARAMETERS: in vivo, read-out: Vdss
REPORTED_PROPERTY: Vd
Answer format reminder: number followed by unit.

input: Would you mind telling me what Vd value was observed for `CC[C@H]1OC(=O)[C@H](C)[C@@H](O[C@H]2C[C@@](C)(OC)[C@@H](O)[C@H](C)O2)[C@H](C)[C@@H](O[C@@H]2O[C@H](C)C[C@H](N(C)CCCNC(=O)CCCNc3ccnc4cc(Cl)ccc34)[C@H]2O)[C@](C)(O)C[C@@H](C)CN(C)[C@H](C)[C@@H](O)[C@]1(C)O` ?
output: 116 L/kg

meta.source: ChEMBL document CHEMBL1944516
